Known composite z-score of a selection of compounds
# System: Sam68 (KHDRBS1)
# MEASUREMENT PROTOCOL: Sam68 small-molecule binders, primary screen, biochemical, small-molecule microarray, 635 nm fluorescence (AID 1125);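 further: score merges 667 nm channel intensity with signal to noise over triplicate slides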
# APPLIED CONDITIONS: small-molecule microarray binding, higher = more signal

CCCCNC(=O)c1ccc(C#C[Si](C(C)C)(C(C)C)C(C)C)c(OC(C)=O)c1	0.823
COc1cc(NN2C(C(O)c3ccc(I)cc3)C=CC3C(=O)N(c4ccccc4)C(=O)C32)cc(OC)c1OC (stereo not drawn)	1.32
C=C(COC)C(=O)CC[C@H](OC(C)=O)c1ccc(OCCO)cc1	0.666
C=C/C=C/[C@@H]1C(=C)CN([C@@H](Cc2ccccc2)C(=O)OC)[C@H]1[C@@H](O)Cc1ccccc1	1.09
C=CCN1C(=O)[C@@]2(O[C@@H](CCO)[C@H]([Si](C)(C)c3ccc(OC)cc3)[C@H]2C)c2cc(N3CCOC3=O)ccc21	0.329
CC(C)C[C@@H]1NC(=O)[C@@H]2C[C@H](C(=O)NCCCCCC[N+](C)(C)C)[C@H](c3cccc(OCCO)c3)N2C1=O	0.584

[in] Which composite z-score is reported for this compound? O=C1C2C=CC(C(O)c3ccc(I)cc3)N(Nc3ccccc3)C2C(=O)N1c1ccccc1 (stereo not drawn)
[out] 1.34

[in] Fill in: composite z-score of C[C@@H]1ON(c2ccc(I)cc2)[C@H](c2ccc(OC(=O)OC(C)(C)C)cc2)[C@H]1C(=O)N1C(=O)OC[C@H]1Cc1ccccc1 is ___
[out] 1.15

###

# SYSTEM NAME: Fibroblast growth factor 2 (Homo sapiens)
# MEASUREMENT PROTOCOL: FGF2 binders on small-molecule microarrays, primary screen, biochemical, small-molecule microarray, 635/667 nm fluorescence (AID 1133)
# APPLIED CONDITIONS: small-molecule microarray binding, FGF2, fluorescence 635/667; higher = more signal
Short version: composite z-score at least -0.2 is Met, less is Not met.

CO[C@H]1O[C@H](CO)[C@@H](OC(=O)c2ccc(Br)cc2)[C@@H]2OC(=O)[C@H](Cc3ccccc3)C/C=C/C[C@@H](Cc3ccccc3)C(=O)O[C@@H]12	Met

Then this compound:
[in] Identify whether the reported composite z-score of the following compound is -0.2 or greater: COCCOC(=O)N1C(=O)[C@@]2(c3cc(C#CC4(O)CCCCCC4)ccc31)[C@H](C(=O)N1CCN(c3ncccn3)CC1)[C@H]1C(=O)O[C@H](c3ccccc3)[C@H](c3ccccc3)N1[C@@H]2c1ccccc1OCCO
[out] Met

###

# Tested on: Wnt5a (protein binding on small-molecule microarray)
# MEASUREMENT PROTOCOL: Wnt5a binders on small-molecule microarray, primary screen, biophysical, 635/667 nm fluorescence (AID 1142);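 further: fluorescence read at 667 nm with signal to noise per printed feature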
# APPLIED CONDITIONS: 635 nm fluorescence, higher = more signal
Returns one of 1 or 0; 1 when composite z-score is >= 0.1.

Below, 2 compounds whose answers are already recorded.
COCC(=C=CC[C@@H](O)c1ccc(OCCO)cc1)CCO	0
CN(C)CCCNC(=O)[C@@H]1c2ccccc2C(=O)N(C2CCCCC2)[C@H]1c1ccc(CO)cc1	1

[in] Determine whether measured composite z-score meets or exceeds 0.1 for NCCCCCNC(=O)[C@H]1C[C@H]2C(=O)N[C@@H](Cc3ccccc3)C(=O)N2[C@H]1c1ccc(O)cc1
[out] 1

[in] Decide: composite z-score of C=C(C)C1CCC(C(O)C2C=CC3C(=O)N(C)C(=O)C3N2Nc2cc(OC)c(OC)c(OC)c2)CC1 (stereo not drawn) >= 0.1?
[out] 1

[in] Exam item: decide whether the reported composite z-score for C=C(COC)C(=O)CC[C@H](OC(=O)c1cccnc1)c1ccc(CO)o1 is at least 0.1.
[out] 1

[in] Has CC(C)C[C@@H]1NC(=O)[C@@H]2C[C@H](C(=O)NCCCCCC[N+](C)(C)C)[C@H](c3cccc(OCCO)c3)N2C1=O a recorded composite z-score greater than or equal to 0.1?
[out] 0

[in] Could you verify whether the entry COc1ccc(C#Cc2ccc3c(c2)[C@]2(C(=O)N3)[C@H](C(=O)Nc3nc4ccccc4s3)[C@H]3C(=O)O[C@H](c4ccccc4)[C@H](c4ccccc4)N3[C@@H]2c2ccccc2OCCO)cc1 shows composite z-score of no less than 0.1?
[out] 1

[in] Could you verify whether the entry COc1ccc([Si](C)(C)[C@H]2[C@H](CC(=O)N3Cc4ccccc4C[C@H]3CO)O[C@@]3(C(=O)N(Cc4ccc(N5C(=O)c6cccc7cccc5c67)cc4)c4ccccc43)[C@@H]2C)cc1 shows composite z-score of no less than 0.1?
[out] 0

###

Each entry below carries its reported z-score.
# MEASUREMENT PROTOCOL: CREB reporter modulators without forskolin, primary screen, cell-based, PC12, CRE-LacZ reporter, unstimulated (AID 1145)
# APPLIED CONDITIONS: no forskolin, luminescence, 4.5 h, higher = more signal, called active from +8 up or from −8 down
Number, no unit, nothing else.

Worked cases, z-score given:
CN(C)C(=O)[C@]1(CCS(=O)(=O)c2ccccc2)N=C(c2ccc(OCCCO)cc2)O[C@@H]1c1ccccc1	1.42
CCCCCCCCCCC(O)C1C=CC2C(=O)N(C)C(=O)C2N1Nc1cc(OC)c(OC)c(OC)c1 (centres undefined)	0.819

[in] Recorded z-score for COc1ccc([Si](C)(C)[C@H]2[C@H](CC(=O)N3Cc4ccccc4C[C@H]3CO)O[C@@]3(C(=O)N(Cc4ccc(N5C(=O)c6cccc7cccc5c67)cc4)c4ccccc43)[C@@H]2C)cc1 , please?
[out] 1.04

[in] // returns reported z-score for input CCN(CC)c1ccc(N2CC=CC34O[C@@H]5/C=C\CCC(C)OC(=O)C5[C@H]3C(=O)N(C(C)CO)[C@@H]4C2=O)cc1 (some centres undefined)
[out] 0.87

###

# MEASUREMENT PROTOCOL: HepG2 cell viability effects, profiling panel, calcein-AM fluorescence, 48 h, basal (AID 1164); further: test concentration not given here
# APPLIED CONDITIONS: higher = more signal
READOUT: z-score
Give only the figure.

Worked cases, z-score given:
COCC1=C2[C@@H](CCc3ccccc3)OB(O)C[C@@H]2[C@@H]2C(=O)N(C)C(=O)[C@@H]2C1	-0.187
COCCCNC(=O)[C@@H]1c2ccccc2C(=O)N(C2Cc3ccccc3C2)[C@H]1c1ccc(CO)cc1	0.165
CCN(CC)c1ccc(N2CC=CC34O[C@@H]5C=CCCOC(=O)C5[C@H]3C(=O)N(CCO)[C@@H]4C2=O)cc1 (some centres undefined)	-0.618

[in] Fill blank: measured z-score of the compound COc1ccc(NC(=O)O[C@H]2[C@@H]3OC(=O)[C@H](Cc4cccc(Br)c4)C/C=C/C[C@@H](Cc4cccc(Br)c4)C(=O)O[C@H]3[C@@H](OC)O[C@@H]2CO)cc1 is ____.
[out] 0.323

[in] I would be grateful if you could share the reported z-score for COCCOC(=O)N1C(=O)[C@@]2(c3cc(C#CCNC(N)=O)ccc31)[C@H](c1ccc(OCCO)cc1)N1[C@H](c3ccccc3)[C@H](c3ccccc3)OC(=O)[C@H]1[C@@H]2C(N)=O .
[out] 0.334

[in] For the compound CCC(CC)C(O)C1C=CC2C(=O)N(c3ccccc3)C(=O)C2N1Nc1ccc([N+](=O)[O-])cc1 (centres undefined) , what z-score is on record?
[out] -0.172

[in] # input compound: [N-]=[N+]=Nc1ccccc1C[C@]1(C(=O)O)N=C(c2ccc(OCCCO)cc2)O[C@H]1c1ccccc1 ; wanted: its z-score
[out] 1.28

[in] Could you tell me which z-score is on file for C=C(C(=O)CC[C@H](OC(=O)c1ccccc1-c1ccccc1C(=O)O)c1ccccc1OCCO)C(C)C ?
[out] 0.255

[in] For C=CCN1C(=O)[C@]2(O[C@H](CCO)[C@@H]([Si](C)(C)c3ccc(OC)cc3)[C@@H]2C)c2cc(N3C(=O)COc4ccccc43)ccc21 , what is its reported z-score?
[out] -4.67

###

# MEASUREMENT PROTOCOL: anti-His antibody binders, primary screen, artefact control for SMM control protein annotation, biochemical, small-molecule microarray, 635 nm fluorescence (AID 1128);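 further: score merges feature fluorescence with signal-to-noise for each printed compound spot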
# APPLIED CONDITIONS: anti-His Alexa647 antibody binding, higher = more signal
READOUT: composite z-score
Hey, just send me the number, nothing else.

O=C1N(CCS(=O)(=O)c2ccccc2)Cc2ccccc2[C@@H]2OC(c3ccc(OCCCO)cc3)=N[C@]12CCS(=O)(=O)c1ccccc1	0.519
COc1cc(NN2C(C(O)C3CCCCC3)C=CC3C(=O)N(c4ccccc4)C(=O)C32)cc(OC)c1OC (stereo unspecified)	1.96
CC(C)CNC(=O)[C@@]1(C)c2ccccc2C(=O)N(Cc2cc(C(F)(F)F)cc(C(F)(F)F)c2)[C@H]1c1ccc(CO)cc1	-0.738
CC=CC(O)C1C=CC2C(=O)NC(=O)C2N1Nc1ccccn1 (stereo unspecified)	1.41
CN1C(=O)C2C=CC(C(O)c3ccc(I)cc3)N(Nc3ccccc3)C2C1=O (stereo unspecified)	0.276

[in] Suppose we examine the compound [N-]=[N+]=NCc1ccccc1[C@H]1OC(c2ccc(OCCCO)cc2)=N[C@@]1(Cc1ccccc1)C(=O)NCCN1CCOCC1 ; what composite z-score value has been reported?
[out] 2.04
